As shown below, each of these binders has a reported pKd value.
Molecular target: T1, PUF4 RNA-binding domain (Saccharomyces cerevisiae, UniProt P25339 537-888)
T1 sequence: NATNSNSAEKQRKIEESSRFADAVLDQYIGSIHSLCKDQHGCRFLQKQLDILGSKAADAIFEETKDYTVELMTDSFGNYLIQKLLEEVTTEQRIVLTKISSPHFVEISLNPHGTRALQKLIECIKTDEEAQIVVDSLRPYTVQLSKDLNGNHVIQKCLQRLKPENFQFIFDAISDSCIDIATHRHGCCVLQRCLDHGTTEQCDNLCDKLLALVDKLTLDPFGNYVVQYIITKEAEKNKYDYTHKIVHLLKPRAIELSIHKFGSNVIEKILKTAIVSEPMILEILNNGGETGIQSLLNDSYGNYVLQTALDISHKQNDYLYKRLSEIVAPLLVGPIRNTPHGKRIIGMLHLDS
Experiment: Mg; RNA-MaP; 20 mM Na-HEPES pH 7.4, 30 mM KOAc, 0.75 mM MgCl2, 0.1% Tween-20, 5% glycerol, 0.1 mg/mL BSA, 2 mM DTT; 25 C; 0.0125-409.6 nM protein
Conditions: tags: N-His6-TEV cleaved; C-SNAP kept, Cy3B-labelled; label: tethered on chip by stalled RNA polymerase
Schema: pKd number; meaning minus log10 of the concentration expressed in molar units.

Item: ACAAACCGUAUAUAUAGAACAAAC (ssRNA) [Id_ii_S3_P3E.3_K3.2_C3.2_[T-1G]_H3.2_A3.1_F3.1_T3.2_[T9G]] | pKd: 6.44

Given item Ie_S4_P5E.1_K5.1_C5.1_H5.1_[+3CCC]_A5.1_F5.1_T5.1 (ssRNA) RNA: UUUGACAACUGAUCGUUCUUUCUUGUCCCAUUAUUAUUCUUUCUCGAUCAGUUGUCUUU , the value recorded as its pKd is 7.56
